- target.entity: human TAS1R2-WT/TAS1R3-A5T (Homo sapiens, UniProt Q7RTX0+Q8TE23, A5T)
- Construct: expressed in transfected cells; host or cells: HEK293T stably expressing Gα16gust44
- Sequence (Q8TE23 20-839): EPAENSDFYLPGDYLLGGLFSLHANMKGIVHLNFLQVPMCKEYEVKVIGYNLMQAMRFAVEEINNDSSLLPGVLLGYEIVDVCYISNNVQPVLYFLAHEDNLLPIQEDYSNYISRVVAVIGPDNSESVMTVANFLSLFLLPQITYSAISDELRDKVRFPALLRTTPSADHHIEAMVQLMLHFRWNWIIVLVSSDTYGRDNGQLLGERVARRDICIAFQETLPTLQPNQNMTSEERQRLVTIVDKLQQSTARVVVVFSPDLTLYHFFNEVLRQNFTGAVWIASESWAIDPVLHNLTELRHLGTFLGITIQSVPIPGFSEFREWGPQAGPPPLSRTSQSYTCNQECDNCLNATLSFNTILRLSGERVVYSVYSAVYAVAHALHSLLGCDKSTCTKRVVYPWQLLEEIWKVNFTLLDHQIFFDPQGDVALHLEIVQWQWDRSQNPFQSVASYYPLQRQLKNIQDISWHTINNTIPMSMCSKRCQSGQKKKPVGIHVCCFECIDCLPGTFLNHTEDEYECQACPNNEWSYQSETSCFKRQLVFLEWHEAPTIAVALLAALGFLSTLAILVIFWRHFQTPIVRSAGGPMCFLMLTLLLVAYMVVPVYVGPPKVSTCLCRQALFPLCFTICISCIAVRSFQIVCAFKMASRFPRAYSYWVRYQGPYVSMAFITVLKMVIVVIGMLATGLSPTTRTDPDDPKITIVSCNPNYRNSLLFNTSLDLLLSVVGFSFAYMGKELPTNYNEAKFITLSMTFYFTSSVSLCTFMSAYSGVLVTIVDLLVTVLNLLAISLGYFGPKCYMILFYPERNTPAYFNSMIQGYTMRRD
- Sequence (Q7RTX0 21-852): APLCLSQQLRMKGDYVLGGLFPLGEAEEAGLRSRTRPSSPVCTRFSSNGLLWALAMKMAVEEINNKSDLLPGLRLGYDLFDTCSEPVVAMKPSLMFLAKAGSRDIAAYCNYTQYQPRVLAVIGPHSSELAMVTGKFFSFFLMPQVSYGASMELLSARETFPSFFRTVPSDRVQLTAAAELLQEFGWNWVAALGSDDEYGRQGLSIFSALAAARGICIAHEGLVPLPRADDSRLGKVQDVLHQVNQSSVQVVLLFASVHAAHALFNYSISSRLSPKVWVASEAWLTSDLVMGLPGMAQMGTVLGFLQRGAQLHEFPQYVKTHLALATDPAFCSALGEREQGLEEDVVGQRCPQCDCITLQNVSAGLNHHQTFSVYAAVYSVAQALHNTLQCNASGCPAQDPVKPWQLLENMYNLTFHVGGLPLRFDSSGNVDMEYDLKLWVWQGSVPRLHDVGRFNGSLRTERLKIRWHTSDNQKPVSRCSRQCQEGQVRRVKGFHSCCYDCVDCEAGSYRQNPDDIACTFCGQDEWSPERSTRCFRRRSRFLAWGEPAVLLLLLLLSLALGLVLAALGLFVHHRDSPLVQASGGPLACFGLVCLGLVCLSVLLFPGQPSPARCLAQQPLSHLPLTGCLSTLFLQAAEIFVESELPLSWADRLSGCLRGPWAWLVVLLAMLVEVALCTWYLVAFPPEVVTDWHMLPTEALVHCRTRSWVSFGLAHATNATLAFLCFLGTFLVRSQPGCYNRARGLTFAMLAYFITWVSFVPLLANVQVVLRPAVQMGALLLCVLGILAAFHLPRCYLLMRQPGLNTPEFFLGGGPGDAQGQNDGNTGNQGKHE
- assay.procedure: Calcium mobilisation assay, TAS1R2-WT with TAS1R3 variant A5T
- Format: cell-based
- conditions.used: read-out: EC50
# EC50 per record follows
Could you give me the number in µM? Just the number is fine.

Example entries and their recorded answers appear below.
>  <compound>
COc1ccc(CCC(=O)c2c(O)cc(O[C@@H]3O[C@H](CO)[C@@H](O)[C@H](O)[C@H]3O[C@@H]3O[C@@H](C)[C@H](O)[C@@H](O)[C@H]3O)cc2O)cc1O [NHDC, neohesperidin dihydrochalcone]

>  <units>
µM

>  <EC50>
76.5

$$$$
>  <compound>
C=C1C[C@@]23CC[C@H]4[C@@](C)(CCC[C@@]4(C)C(=O)O[C@@H]4O[C@H](CO)[C@@H](O)[C@H](O[C@@H]5O[C@H](CO)[C@@H](O)[C@H](O)[C@H]5O)[C@H]4O[C@@H]4O[C@H](CO)[C@@H](O)[C@H](O)[C@H]4O)[C@@H]2CC[C@]1(O[C@@H]1O[C@H](CO)[C@@H](O)[C@H](O[C@@H]2O[C@H](CO)[C@@H](O)[C@H](O)[C@H]2O)[C@H]1O[C@@H]1O[C@H](CO)[C@@H](O)[C@H](O)[C@H]1O)C3 [Rebaudioside M, rebaudioside M]

>  <units>
µM

>  <EC50>
30.2

$$$$
>  <compound>
O=S(=O)(O)NC1CCCCC1 [Cyclamate, cyclamate]

>  <units>
µM

>  <EC50>
1790

$$$$

# evaluate next
Request: What measured EC50 goes with C=C(C)[C@@H]1CC=C(/C=N/O)CC1 ?
Response: 13.2
